Biological target: recombinant mouse sEH (MsEH) (Mus musculus, UniProt P34914)
Sequence (P34914 1-554): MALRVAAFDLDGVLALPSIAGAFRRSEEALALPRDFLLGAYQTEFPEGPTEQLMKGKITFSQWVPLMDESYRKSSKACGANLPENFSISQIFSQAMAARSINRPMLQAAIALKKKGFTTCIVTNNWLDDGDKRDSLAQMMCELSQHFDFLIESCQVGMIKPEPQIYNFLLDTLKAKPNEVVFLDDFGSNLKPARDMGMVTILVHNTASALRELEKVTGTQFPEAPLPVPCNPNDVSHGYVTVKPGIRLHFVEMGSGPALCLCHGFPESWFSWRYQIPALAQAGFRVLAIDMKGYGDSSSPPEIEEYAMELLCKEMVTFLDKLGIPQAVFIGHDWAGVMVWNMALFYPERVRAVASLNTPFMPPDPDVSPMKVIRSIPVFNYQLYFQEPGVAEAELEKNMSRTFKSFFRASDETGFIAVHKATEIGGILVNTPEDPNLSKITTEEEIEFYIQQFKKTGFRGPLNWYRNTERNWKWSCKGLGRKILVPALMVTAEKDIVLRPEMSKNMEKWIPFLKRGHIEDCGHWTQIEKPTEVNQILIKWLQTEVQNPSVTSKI
Experiment: Inhibition of recombinant mouse sEH (MsEH)
Format: biochemical
Details: Table 1; MsEH 0.13 μM; read-out: Mouse sEH IC50
The label true (1) is reserved for IC50 strictly under 60 nM; false (0) covers values equal to or above it.

| chemSmiles | assignedCategory |
| --- | --- |
| C[C@@H](NC(=O)NC1CCCCC1)c1ccccc1 | true (1) |
| CCCCCCCCNC(=O)Nc1cccc(Cl)c1 | false (0) |

Please determine if CCCCCCCCNC(=O)NC1CCC1 is below 60 nM in terms of IC50.
false (0)

Please determine if CC(C)c1ccc(NC(=O)NC2CCCCC2)cc1 is below 60 nM in terms of IC50.
false (0)

Please determine if O=C(NCCCc1ccccc1)Nc1ccccc1 is below 60 nM in terms of IC50.
false (0)

Please determine if O=C(NCc1ccc(Cl)cc1)NC1CCCCC1 is below 60 nM in terms of IC50.
true (1)

Please determine if O=C(NC(=O)c1ccc(Cl)cc1)NC1CCCCC1 is below 60 nM in terms of IC50.
true (1)

Please determine if CCCCCCCCNC(=O)NCCCCC is below 60 nM in terms of IC50.
false (0)

Please determine if CC(C)c1ccc(NC(=O)NCCc2ccccc2)cc1 is below 60 nM in terms of IC50.
false (0)

Please determine if O=C(NC1CCCCC1)NC1CCCC1 is below 60 nM in terms of IC50.
false (0)

Please determine if CCCCCCCCCCCNC(=O)NCCCC is below 60 nM in terms of IC50.
false (0)

Please determine if O=C(NC1CCCCCCCCCCC1)NC1CCCCC1 is below 60 nM in terms of IC50.
true (1)

Please determine if CCCCCCNC(=O)Nc1ccc2ccccc2c1 is below 60 nM in terms of IC50.
false (0)

Please determine if Cc1cccc(C)c1NC(=O)NC1CCCCC1 is below 60 nM in terms of IC50.
true (1)
